vaccinia virus D10 decapping enzyme (His-tagged, WT) (Vaccinia virus, UniProt P04312): reported pIC50 for various molecules.
pIC50: −log10 of the molar value.
measured_quantity: pIC50

molecule=Nc1nc2nc[nH]c2c(=O)[nH]1 result="< 3.70"
molecule="NC(=O)c1ncn([C@@H]2O[C@H](CO[P@@](=O)(O)O[P@](=O)(O)OP(=O)(O)O)[C@@H](O)[C@H]2O)n1 [Ribavirin triphosphate]" result="< 3.70"

====

pKi: −log10 of the molar value.
Values of pKi reported for vaccinia virus D10 decapping enzyme (His-tagged, WT) (Vaccinia virus) appear below.
measured_quantity: pKi

molecule=Nc1nc2nc[nH]c2c(=O)[nH]1 subject_of_test="vaccinia virus D10 decapping enzyme (His-tagged, WT) (Vaccinia virus)" result="< 6.10"
molecule="NC(=O)c1ncn([C@@H]2O[C@H](CO[P@@](=O)(O)O[P@](=O)(O)OP(=O)(O)O)[C@@H](O)[C@H]2O)n1 [Ribavirin triphosphate]" subject_of_test="vaccinia virus D10 decapping enzyme (His-tagged, WT) (Vaccinia virus)" result="< 6.10"
